# TEST_SUMMARY: Aqueous solubility of the compound in buffer at pH 1.2
# Type: physicochemical
OBSERVATION_TYPE: solubility

For the 3 compounds below, give their solubility values.
1. COc1ccccc1[C@@H](O)c1cc(Cl)cc(OCCC(C)(C)O)c1N(CC(C)(C)C)C(=O)CCC(=O)N1CCC[C@H](C(=O)O)C1
2. COc1ccccc1[C@@H](O)c1cc(Cl)cc(OC)c1N(CC(C)(C)C)C(=O)CCC(=O)N1CCC[C@H](C(=O)O)C1
3. COc1ccccc1[C@@H](O)c1cc(Cl)cc(OCC(C)(C)CO)c1N(CC(C)(C)C)C(=O)CCC(=O)N1CCC[C@H](C(=O)O)C1

Return:
1. 37 µg/mL
2. < 3 µg/mL
3. 12 µg/mL

For the 5 compounds below, give their solubility values.
1. COc1ccccc1[C@@H](O)c1cc(Cl)cc(OC(C)C)c1N(CC(C)(C)C)C(=O)CCC(=O)N1CCC[C@H](C(=O)O)C1
2. COc1ccccc1[C@@H](O)c1cc(Cl)cc(OCC(C)(C)C)c1N(CC(C)(C)C)C(=O)CCC(=O)N1CCC[C@H](C(=O)O)C1
3. CCOc1cc(Cl)cc([C@H](O)c2ccccc2OC)c1N(CC(C)(C)C)C(=O)CCC(=O)N1CCC[C@H](C(=O)O)C1 (stereo in doubt; form 1)
4. COc1ccccc1[C@@H](O)c1cc(Cl)cc(C)c1N(CC(C)(C)C)C(=O)CCC(=O)N1CCC[C@H](C(=O)O)C1
5. COc1ccccc1[C@@H](O)c1cc(Cl)cc(OCCCO)c1N(CC(C)(C)C)C(=O)CCC(=O)N1CCC[C@H](C(=O)O)C1

Return:
< 3 µg/mL
< 3 µg/mL
< 3 µg/mL
< 3 µg/mL
92 µg/mL
